# subject_of_test: UniProt Q16790
# test: Inhibition of human recombinant transmembrane CA9 preincubated for 15 mins by stopped-flow CO2 hydration method
quantity_kind: pKi
Formally, pKi is defined as -log10 of the concentration c, with c in mol/L.

cpd_smiles: NS(=O)(=O)Oc1ccc(-[n+]2c(-c3ccccc3)cc(-c3ccccc3)cc2-c2ccccc2)cc1
pKi: 7.85

Asked: If you can, please state the reported pKi value of CN(C)c1ccc(NC(=O)Nc2ccc(OS(N)(=O)=O)cc2)cc1 .
Given back: 8.05
